Source: patent US20200292534A1

# System: T1, NLpoly11S
# T1 chain: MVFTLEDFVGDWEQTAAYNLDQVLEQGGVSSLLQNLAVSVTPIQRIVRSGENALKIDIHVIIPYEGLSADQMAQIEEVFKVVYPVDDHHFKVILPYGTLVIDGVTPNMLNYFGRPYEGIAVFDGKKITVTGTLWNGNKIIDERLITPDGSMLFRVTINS
# Assay overview: luminescence complementation titration, one-site specific binding fit
Returns: string. Value is satisfied if measured Bmax is below 20000, and not satisfied if it is greater than or equal to it.

Below are worked cases with known answers.
VEGYRLFKQIS (modifications not checked) [array2.58] = not satisfied
VEGYRLFKEAL (modifications not checked) [array2.89] = satisfied
VTGYRLFEKIS (modifications not checked) [array2.19] = not satisfied
VTGYRLFQKES (modifications not checked) [array2.12] = satisfied
VEGYRLFKKES (modifications not checked) [array2.57] = satisfied

**Q:** # check: Bmax < 20000 for VTGYRLFEQIL (modifications not checked) [array2.49]
**A:** not satisfied

**Q:** # check: Bmax < 20000 for VTGYRLFKQAL (modifications not checked) [array2.32]
**A:** not satisfied

**Q:** # check: Bmax < 20000 for VEGYRLFQQEL (modifications not checked) [array2.96]
**A:** not satisfied

**Q:** # check: Bmax < 20000 for VTGYRLFQKIL (modifications not checked) [array2.37]
**A:** not satisfied

**Q:** # check: Bmax < 20000 for VTGYRLFEQAS (modifications not checked) [array2.23]
**A:** satisfied

**Q:** # check: Bmax < 20000 for VTGYRLFQQAL (modifications not checked) [array2.41]
**A:** satisfied
